Where a name gives a salt, the structure may show the parent alone.
Items are presented alongside their recorded melting point.
Response body: numeric value in °C, unit text excluded.

Consider the following illustrative entries.
compound="COc1nc2ccc(SC)cc2cc1C(c1ccc(Cl)cc1)C1(O)CCNC(Cc2ccc(F)cc2)C1 (stereo not shown) [Compound 260]" experimental_result=104
compound="COc1nc2ccc(S(C)(=O)=O)cc2cc1C(c1ccc(Cl)cc1)C1(O)CCNC(Cc2ccc(F)c(F)c2)C1 (stereo not shown) [Compound 211]" experimental_result=150

What the record says about COc1nc2ccc(Br)cc2cc1C(c1ccc(Cl)cc1)C1(O)CCNC(Cc2ccc(F)cc2F)C1 (stereo not shown) (as salt: trifluoroacetate) [Compound 51] : melting point is 176

What the record says about COc1nc2ccc(S(C)(=O)=O)cc2cc1C(c1cccc(Cl)c1)C1(O)CCNC(c2ccc(F)cc2C)C1 (stereo not shown) [Compound 45] : melting point is 160

###

Structures can show the parent of a compound that is named as a salt.
Endpoint name: melting point (°C)
Response body: numeric value in °C, unit text excluded.

compound="COc1nc2ccc(F)cc2cc1C(c1ccc(Cl)cc1)C1(O)CCNC(Cc2ccccc2)C1 (stereo not drawn) [Compound 53]" experimental_result=102

What the record says about COc1nc2ccc(Br)cc2cc1C(c1ccc(Cl)cc1)C1(O)CCNC(Cc2ccc(F)c(F)c2)C1 (stereo not drawn) (as salt: fumarate) [Compound 113] : melting point is 130

What the record says about O=c1[nH]c2ccc(Br)cc2cc1C(c1ccc(Cl)cc1)C1(O)CCNC(Cc2ccc(F)cc2)C1 (stereo not drawn) (as salt: hydrochloride) [Compound 365] : melting point is 242

What the record says about COc1nc2ccc(SC)cc2cc1C(c1cccc(Cl)c1)C1(O)CCNC(c2ccc(F)cc2C)C1 (stereo not drawn) (as salt: fumarate) [Compound 165] : melting point is 168

What the record says about COc1nc2ccc(Br)cc2cc1C(c1ccc(Cl)cc1)C1(O)CCNC(Cc2ccccn2)C1 (stereo not drawn) : melting point is 161

What the record says about COc1nc2ccc(Br)cc2cc1C(c1ccc(Cl)cc1)C1(O)CCNC(Cc2ccc(F)cc2F)C1 (stereo not drawn) (as salt: trifluoroacetate) [Compound 319] : melting point is 169

###

Structures can show the parent of a compound that is named as a salt.
Endpoint name: melting point (°C)
Response body: numeric value in °C, unit text excluded.

Consider the following illustrative entries.
compound="O=c1[nH]c2ccc(Br)cc2cc1C(c1ccc(Cl)cc1)C1(O)CCNC(Cc2ccccc2)C1 (centres unmarked)" endpoint_name="melting point" unit_abbrev=°C experimental_result=233
compound="COc1nc2ccc(Br)cc2cc1C(c1ccc(Cl)cc1)C1(O)CCNCC1Cc1cccc(F)c1 (centres unmarked) [Compound 228]" endpoint_name="melting point" unit_abbrev=°C experimental_result=196
compound="COc1nc2ccc(S(C)(=O)=O)cc2cc1C(c1ccc(Cl)cc1)C1(O)CCNC(c2ccc(F)cc2C)C1 (centres unmarked) [Compound 216]" endpoint_name="melting point" unit_abbrev=°C experimental_result=152
compound="COc1nc2ccc(S(C)(=O)=O)cc2cc1C(c1ccc(Cl)cc1)C1(O)CCNC(c2ccc(F)cc2C)C1 (centres unmarked) [Compound 200]" endpoint_name="melting point" unit_abbrev=°C experimental_result=187
compound="COc1nc2ccc(Br)cc2cc1C(c1ccc(SC)cc1)C1(O)CCNC(Cc2ccccc2)C1 (centres unmarked) [Compound 99]" endpoint_name="melting point" unit_abbrev=°C experimental_result=214
compound="COc1nc2ccc(Cl)cc2cc1C(c1ccc(Cl)cc1)C1(O)CCNCC1Cc1ccccn1 (centres unmarked) [Compound 434]" endpoint_name="melting point" unit_abbrev=°C experimental_result=197
compound="COc1nc2ccc(SC)cc2cc1C(c1ccccc1)C1(O)CCNC(Cc2ccccc2)C1 (centres unmarked) [Compound 142]" endpoint_name="melting point" unit_abbrev=°C experimental_result=190
compound="COc1nc2ccc(F)cc2cc1C(c1ccc(Cl)cc1)C1(O)CCN(C(C)c2ccccc2)C(CO)C1 (centres unmarked) [Compound 13]" endpoint_name="melting point" unit_abbrev=°C experimental_result=162
compound="COc1nc2ccc(Br)cc2cc1C(c1ccc(Cl)cc1)C1(O)CCN(Cc2ccccc2)CC1C (centres unmarked) (as salt: salt) [Compound 26]" endpoint_name="melting point" unit_abbrev=°C experimental_result=238

Now for another entry.
What the record says about COc1nc2ccc(S(C)(=O)=O)cc2cc1C(c1ccc(Cl)cc1)C1(O)CCNC(c2ccc3ccccc3c2)C1 (centres unmarked) [Compound 464] : melting point is 154
